# Lookup of reported Raw RFU value keyed by entry
procedure_details: RFU comparison of solutions to release OsteoSense 750 from HA
condition: 5% solution, 15 minutes at 37° C.
Return type: number; implicit unit RFU.

{"columns": ["compound", "unit_abbrev", "measurement"],
 "data": [
  ["O=P([O-])(O)O.[Na+] [sodium phosphate monobasic (M), sodium phosphate monobasic]", "RFU", 3.90],
  ["O=P(O)(O)O [phosphoric acid (PA), phosphoric acid]", "RFU", 3.67],
  ["O=P([O-])([O-])O.[Na+].[Na+] [sodium phosphate dibasic (D), sodium phosphate dibasic]", "RFU", 5.33]
]}

Now for the compound whose Raw RFU value we want.
Query :: Please report the recorded Raw RFU value for O=P(O)(O)CP(=O)(O)O [methylene phosphoric acid (MDP), methylene phosphoric acid] .
Result :: 12.88

----------
# Lookup of reported % released of total reference value keyed by entry
procedure_details: RFU comparison of solutions to release OsteoSense 750 from HA
condition: 10% solution, 15 minutes at 37° C.
Return type: number; implicit unit %.

{"columns": ["molecule", "% released of total reference value / %"],
 "data": [
  ["O=P(O)(O)CP(=O)(O)O [methylene phosphoric acid (MDP), methylene phosphoric acid]", 55.84],
  ["O=P(O)(O)O [phosphoric acid (PA), phosphoric acid]", 9.10]
]}

Now for the molecule whose % released of total reference value we want.
Query :: Please report the recorded % released of total reference value for O=P([O-])(O)O.[Na+] [sodium phosphate monobasic (M), sodium phosphate monobasic] .
Result :: 32.36
